TARGET OR TEST SYSTEM: Tyrosinase (Agaricus bisporus, UniProt O42713)
Sequence (O42713 whole entry): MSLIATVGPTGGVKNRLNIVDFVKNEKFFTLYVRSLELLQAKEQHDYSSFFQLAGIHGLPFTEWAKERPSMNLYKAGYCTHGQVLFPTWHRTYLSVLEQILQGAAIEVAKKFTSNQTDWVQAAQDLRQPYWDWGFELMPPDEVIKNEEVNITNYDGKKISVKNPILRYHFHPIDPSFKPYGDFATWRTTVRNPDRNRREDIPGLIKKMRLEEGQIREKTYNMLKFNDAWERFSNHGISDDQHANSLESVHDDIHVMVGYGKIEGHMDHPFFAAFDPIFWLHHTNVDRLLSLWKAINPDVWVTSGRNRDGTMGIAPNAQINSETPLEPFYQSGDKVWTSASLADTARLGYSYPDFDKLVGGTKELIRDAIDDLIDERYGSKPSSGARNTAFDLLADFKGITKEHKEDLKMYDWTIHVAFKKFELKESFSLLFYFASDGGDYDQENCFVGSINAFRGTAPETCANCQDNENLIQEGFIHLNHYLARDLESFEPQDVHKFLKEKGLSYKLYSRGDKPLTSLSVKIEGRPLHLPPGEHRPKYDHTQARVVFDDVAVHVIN
ASSAY TEXT: Inhibition of mushroom tyrosinase
Could you please report measured IC50 for the items listed next?
Output spec: scalar in µM, unitless text.

[Q] Dear colleague, please send me the reported IC50 for CC(=O)OC[C@H]1O[C@@H](O[C@H]2[C@H](OC(C)=O)[C@@H](OC(C)=O)[C@H](Oc3ccc(/C=N\NC(N)=S)cc3)O[C@@H]2COC(C)=O)[C@H](OC(C)=O)[C@@H](OC(C)=O)[C@H]1OC(C)=O when you can.
[A] 0.65

[Q] Dear colleague, please send me the reported IC50 for CC(=O)OC[C@H]1O[C@@H](Oc2ccc(/C=N\NC(N)=S)cc2)[C@H](OC(C)=O)[C@@H](OC(C)=O)[C@H]1OC(C)=O when you can.
[A] 0.41

[Q] Dear colleague, please send me the reported IC50 for NC(=S)N/N=C\c1ccc(O[C@@H]2O[C@H](COC(=O)c3ccccc3)[C@@H](OC(=O)c3ccccc3)[C@@H](OC(=O)c3ccccc3)[C@H]2OC(=O)c2ccccc2)cc1 when you can.
[A] 52.8
